Tested on: SNB-75 CNS
Assay Overview: NCI-60 one-dose screen, 48 h
Details: 10 µM unless noted
About 83,000 compounds went through this panel and 20% of them were active in at least one assay; those are over-represented in the sample as a whole. The source made the active and inactive calls. The calls were made as follows: active = growth percent below 10; inactive = the rest.
Outcomes: 1 (yes) = active, 0 (no) = inactive

>>> answer_label("NNC(=O)CSc1nc2scc(-c3ccccc3)c2c(=O)n1-c1ccccc1")
"0 (no)"
>>> answer_label("O=C(CCCN1CCC(O)(c2ccc(Br)cc2)CC1)c1ccc(F)cc1")
"0 (no)"
>>> answer_label("COc1ccc(-c2nc3ccccc3n3cccc23)cc1")
"0 (no)"
>>> answer_label("COc1ccccc1CNCCCN1C(=O)c2ccc3c4c(ccc(c24)C1=O)C(=O)N(CCCOCCCCOCCCN)C3=O")
"1 (yes)"
>>> answer_label("O=c1c2cc(Cl)ccc2oc2ccc(OCCCCCN3CCCCCC3)cc12")
"0 (no)"
>>> answer_label("COc1cc(OC)c(C(=O)/C=C/c2cccc(OC(C)=O)c2)cc1CC=C(C)C")
"0 (no)"
>>> answer_label("Cn1c(-c2ccccc2)cc(=O)n1-c1ccccc1")
"0 (no)"
>>> answer_label("CN(C)c1nc(-c2ccco2)n2nc(-c3ccc(Cl)cc3)cc2n1")
"0 (no)"
>>> answer_label("C#Cc1cccc(Nc2nc3cc([N+](=O)[O-])ccc3nc2Nc2ccc(O)cc2)c1")
"0 (no)"
>>> answer_label("CCOC(=O)C(Cc1ccccc1)n1c(O)c(/C=N/c2ncc(Cc3ccc(Cl)cc3Cl)s2)sc1=S (stereo unspecified)")
"0 (no)"
>>> answer_label("COc1ccc(-c2cc(-c3cc4ccccc4oc3=O)n(-c3ccccc3)n2)cc1")
"0 (no)"
>>> answer_label("CCN1CCN(Cc2ccc(NC(=O)Nc3ccc(-n4ccc5c(NC(=O)c6ccccc6)nccc54)cc3)cc2C(F)(F)F)CC1")
"1 (yes)"
>>> answer_label("CCCCCCCCOC(=O)C(C)OC(=O)OCCOCCOC(=O)OC(C)C(=O)OCCCCCCCC (stereo unspecified)")
"0 (no)"
>>> answer_label("CCN(CC)CCNC(=O)n1cc(-c2ccncc2)c(-c2ccc(Cl)c(OC)c2)n1")
"0 (no)"
>>> answer_label("C=C1C(=O)O[C@H]2[C@H]1CC/C(COC(=O)NCc1[nH]nc3ccccc13)=C\\CC[C@@]1(C)O[C@@H]21")
"0 (no)"
>>> answer_label("CCN(CCC#N)c1ccccc1")
"0 (no)"
>>> answer_label("C(=Nc1ccc(-c2ccc(N=Cc3ccccc3)cc2)cc1)c1ccccc1")
"0 (no)"
>>> answer_label("Cc1nn(-c2cccc(Cl)c2)c(C)c1N=Nc1ccc(Br)cc1")
"0 (no)"
>>> answer_label("Cc1ccsc1C(=O)CC(=O)C(F)(F)C(F)(F)C(F)(F)F")
"0 (no)"
>>> answer_label("COc1cc(/C=C\\c2cc(/C=C\\c3ccc(O)c(OC)c3)n(C(=O)Nc3ccc(C(F)(F)F)cc3)n2)ccc1O")
"0 (no)"
>>> answer_label("O=C(/C=C/c1ccco1)c1ccccc1O")
"0 (no)"
